Listed binders paired with reported SPR binding level
Target: group 2: CDC14A, PTP4A1, BRCA2 and RCL1 homologous peptide/HLA-A*02:01 complexes (mixed)
Test: SPR (BIAcore T200), crude scFv captured, mixed complexes flowed over
Form entry: value (RU) — number only.

Example binders with recorded SPR binding level:
binder	unit-abbrev	SPR binding level
16-AS170036 VL1VH1-56Y108A (scFv) scFv: QSALTQPRSVSGSPGQSVTISCAGTSSDVGSENYVSWYQQHPGKAPKLMIYQVNKRASGVPDRFSGSKSGNTASLTISGLQAEDEADYYCASYRSSDHNIVFGGGTKLTVLGGGGSGGGGSGGGGSEVQLVESGGGLVQPGGSLRLSCAASGFTFSSYAMSWVRQAPGKGLEWVSTINSGTYSPYYADSVKGRFTISRDNSKNTLYLQMNSLRAEDTAVYYCAKNFFDGSWFLAPPAMDYWGQGTLVTVSSHHHHHH	RU	32.6
42-AS170036 VL1VH1-56Y98F108S (scFv) scFv: QSALTQPRSVSGSPGQSVTISCAGTSSDVGSENYVSWYQQHPGKAPKLMIYQVNKRASGVPDRFSGSKSGNTASLTISGLQAEDEADYYCASYRSSDFNIVFGGGTKLTVLGGGGSGGGGSGGGGSEVQLVESGGGLVQPGGSLRLSCAASGFTFSSYAMSWVRQAPGKGLEWVSTINSGTYSPYYADSVKGRFTISRDNSKNTLYLQMNSLRAEDTAVYYCAKNFFDGSWFLSPPAMDYWGQGTLVTVSSHHHHHH	RU	39.3

Entry under review: AS170036 VL1VH1 (scFv) scFv: QSALTQPRSVSGSPGQSVTISCAGTSSDVGSENYVSWYQQHPGKAPKLMIYQVNKRASGVPDRFSGSKSGNTASLTISGLQAEDEADYYCASYRSSDHNIVFGGGTKLTVLGGGGSGGGGSGGGGSEVQLVESGGGLVQPGGSLRLSCAASGFTFSSYAMSWVRQAPGKGLEWVSTINSGTGSPYYADSVKGRFTISRDNSKNTLYLQMNSLRAEDTAVYYCAKNFFDGSWFLGPPAMDYWGQGTLVTVSSHHHHHH . Reported SPR binding level?
0.4

Ref: patent US20240279318A1
